# Assay target: Nuclear receptor subfamily 5 group A member 2 (Homo sapiens) (UniProt O00482)
# Sequence (O00482 whole entry, looked up): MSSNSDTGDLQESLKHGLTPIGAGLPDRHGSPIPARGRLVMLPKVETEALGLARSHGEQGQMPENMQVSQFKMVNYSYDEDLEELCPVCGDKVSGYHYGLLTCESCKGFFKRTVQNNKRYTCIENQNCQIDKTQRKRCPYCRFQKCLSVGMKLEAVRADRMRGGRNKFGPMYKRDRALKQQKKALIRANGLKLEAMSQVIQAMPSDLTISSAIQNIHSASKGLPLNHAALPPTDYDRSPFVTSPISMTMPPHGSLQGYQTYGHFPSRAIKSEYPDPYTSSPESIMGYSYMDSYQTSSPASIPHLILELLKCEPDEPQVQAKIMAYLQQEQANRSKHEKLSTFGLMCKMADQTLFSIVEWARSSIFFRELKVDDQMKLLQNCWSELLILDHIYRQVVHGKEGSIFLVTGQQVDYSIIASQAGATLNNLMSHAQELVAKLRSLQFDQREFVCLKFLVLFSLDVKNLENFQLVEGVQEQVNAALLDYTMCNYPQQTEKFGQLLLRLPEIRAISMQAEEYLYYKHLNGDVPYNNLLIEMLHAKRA
# Experiment: LRH-1 (NR5A2) inverse agonists, retest, confirmation, cell-based, luminescence (AID 651613);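 also: HEK293T cells co-transfected with LRH-1 and StAR promoter luciferase reporter; 0% = vehicle wells and 100% = parental cells lacking receptor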
# Condition set: cell-based LRH-1 luciferase reporter, inverse agonism; at 3.6 µM; stronger effect = higher value
# binarize inhibition: threshold 60% inclusive, high side class 1, low side class 0

Q) Quick check: does O=C(CCl)N1CCN(C(=O)C2COc3ccccc3O2)CC1 (centres undefined) have inhibition greater than or equal to 60%?
A) class 0

Q) Quick check: does c1ccc2c(c1)CCN(c1ncnc3c1[nH]c1ccccc13)C2 have inhibition greater than or equal to 60%?
A) class 1

Q) Quick check: does CN(C)c1cc[n+](Cc2c(Cl)cccc2Cl)cc1 have inhibition greater than or equal to 60%?
A) class 1

Q) Quick check: does C[C@@H]1CN([C@@H](C)CO)S(=O)(=O)c2ccc(-c3ccc(C#N)cc3)cc2O[C@@H]1CN(C)Cc1ccccn1 have inhibition greater than or equal to 60%?
A) class 0

Q) Quick check: does CN(C)c1cc[n+](CC(=O)c2ccc(-c3ccccc3)cc2)cc1 have inhibition greater than or equal to 60%?
A) class 1

Q) Quick check: does COc1cc(NC(=O)COc2cc(O)c3c(c2)OC(C)(C)CC3=O)cc(OC)c1OC have inhibition greater than or equal to 60%?
A) class 0

Q) Quick check: does Cc1nn(C(C)(C)C)c(C)c1/C=N/OC(=O)Nc1ccc(Cl)cc1 have inhibition greater than or equal to 60%?
A) class 1

Q) Quick check: does COc1cccc(C(C)(O)c2nc(-c3cccc(C#N)c3)cs2)c1 (centres undefined) have inhibition greater than or equal to 60%?
A) class 0

Q) Quick check: does CN1/C(=C\C(=O)C[n+]2ccc3ccccc3c2)C(C)(C)c2ccccc21 have inhibition greater than or equal to 60%?
A) class 1

Q) Quick check: does COc1cccc(/C=N/Nc2ncnc3c2ncn3Cc2ccccc2)c1O have inhibition greater than or equal to 60%?
A) class 1

Q) Quick check: does CCCCCc1ccc(OCCCC[n+]2ccc(C)cc2)c(CCCCC)c1 have inhibition greater than or equal to 60%?
A) class 0

Q) Quick check: does Cc1nn(-c2ccccc2)c(C)c1NC(=O)CCl have inhibition greater than or equal to 60%?
A) class 0

Q) Quick check: does O=C1N(c2ccccc2)C[C@@H]2C[C@@H](c3cc4ccccc4o3)N3CCC[C@@]123 have inhibition greater than or equal to 60%?
A) class 1

Q) Quick check: does Fc1ccc(Br)cc1SCCc1ccncc1 have inhibition greater than or equal to 60%?
A) class 0

====

# Assay target: Protein phosphatase methylesterase 1 (Homo sapiens)
# Experiment: PME-1 inhibitor activity retest, confirmation, biochemical, fluorescence polarization, FP-Rh probe, triplicate (AID 2171);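 also: 0% = enzyme with DMSO and 100% = wells lacking PME-1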
# Condition set: recombinant PME-1, FP-Rh probe fluorescence polarization; at 5.9 µM
Calls of active or inactive are those of the source.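 How the source made its calls: active means inhibition above the hit cutoff set in the earlier primary screen (cut at about 27% in these data); inactive means the rest.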
Please state which outcome applies, choosing from true (active), false (inactive)

Completed entries (count: 3):
Q) Hi team, can someone confirm the assay call for Oc1[nH]c2ccccc2c1C=Nc1ccc2c(c1)OCO2 ?
A) false

Q) Hi team, can someone confirm the assay call for CCCn1nc([N+](=O)[O-])c(C(C#N)c2nc3ccccc3o2)c(Cl)c1=O (stereo not given) ?
A) true

Q) Hi team, can someone confirm the assay call for O=C(O)COc1ccccc1/C=N/Nc1ccc(S(=O)(=O)Nc2ccc(Cl)cc2)cc1[N+](=O)[O-] ?
A) true

We now examine a further molecule.
Q) Hi team, can someone confirm the assay call for COC(=O)c1ccccc1C(=O)c1ccc2c(c1)NC(=O)CO2 ?
A) false
